Test: Toxicity liver stage against HepG2, at 10uM
Format: cell-based
Set-up: test concentration 10 uM, cell line HepG2-A16-CD81EGFP
Conditions: human, HepG2-A16-CD81EGFP cells; read-out: INHIBITION
// reported cytotoxicity at 10 µM per item
Respond with the bare value in %.

Completed entries (count: 2):
Problem: Please report the recorded cytotoxicity at 10 µM for `O=C(c1cccnc1)N1CCc2onc(CN3CCCC3)c2C1` .
Solution: 4.86

Problem: # query: cytotoxicity at 10 µM of entry CCC(C)N1Cc2c(C(=O)N3CCCC3)nn(C)c2C1 (stereo not drawn)
Solution: -5.03

Now look at this one.
Problem: Returns the measured cytotoxicity at 10 µM for the input compound. Input: CCC(CO)N(Cc1ccccn1)Cc1c[nH]nc1-c1ccc(F)cc1 (stereo not drawn)
Solution: -1.83

###

Assay: Toxicity liver stage against HepG2, at 10uM
Type: cell-based
Set-up: test concentration 10 uM, cell line HepG2-A16-CD81EGFP
Settings: human, HepG2-A16-CD81EGFP cells; read-out: INHIBITION
Measured cytotoxicity at 10 µM of individual entries
Provide the reading as a plain figure in %.

Worked examples follow.
Problem: Dear colleague, I am looking for the recorded cytotoxicity at 10 µM of the following molecule: `Cc1ccc(CNC(=O)c2ccc(CNS(C)(=O)=O)o2)cc1F`
Solution: 15.2

Problem: Quick one: cytotoxicity at 10 µM for CCc1nnc(CN2CCC(C3CCCCCN3C(=O)C3CC3)CC2)o1 (stereo not drawn) ?
Solution: -49.7

Turning now to a further record.
Problem: I would be grateful if you could share the reported cytotoxicity at 10 µM for `CCN(C)C(=O)c1cc(-c2ccn(C(C)C)n2)n2ccccc12` .
Solution: -4.35

###

cytotoxicity at 10 µM values by entry
Test: Toxicity liver stage against HepG2, at 10uM
Type: cell-based
Parameters: test concentration 10 uM, cell line HepG2-A16-CD81EGFP
Conditions: human, HepG2-A16-CD81EGFP cells; read-out: INHIBITION
# output: bare number, implied unit %

Solved cases (5 shown):
Problem: GET /values?readout=cytotoxicity at 10 µM&item= `Cc1nn(CCO)cc1CN1CCCN(C2CCCC2)CC1`
Solution: 0.292

Problem: Query (compound): `Cc1cccc(NC(=O)CN(C)C(=O)c2ccc(OC(C)C)nc2)n1` ; field requested: cytotoxicity at 10 µM
Solution: -8.99

Problem: Please look up its cytotoxicity at 10 µM: CN(Cc1ccccn1)C1COC2(CCN(Cc3nccs3)CC2)C1 (stereo not drawn)
Solution: -16.2

Problem: Item Cc1cccc(CN2CCOC3(COCCN(CCN(C)C)C3)C2)n1 (stereo not drawn) has what recorded cytotoxicity at 10 µM?
Solution: -113

Problem: Requested field: cytotoxicity at 10 µM. Item: CN(C)C(=O)NCC(=O)N1CCCC2(CCC(=O)N(CC3CC3)C2)C1 (stereo not drawn)
Solution: -8.38

More entries:
Problem: cytotoxicity at 10 µM lookup needed for CSCCC1CC(=O)Nc2cc(O)c(C)cc21 (stereo not drawn) , thanks.
Solution: 1.97

Problem: For `COC(=O)CNC(=O)Cn1ccc2ccc(F)cc21` , what is its reported cytotoxicity at 10 µM?
Solution: -1.33

Problem: GET /values?readout=cytotoxicity at 10 µM&item= `CN(Cc1ccco1)Cc1cncc2c1CCN(c1ncccn1)C2`
Solution: -6.42
